Listed here are molecules together with their documented %Inh.
Test system: FLT1;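 note: KINOMEscan kinase panel screen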
measurement-parameters: concentration: 1 μM, replicates: in singlicate; n = 1
parameter-measured: %Inh (%)

>>> readout_number("NS(=O)(=O)c1cccc(-c2ccc3nccc(-c4cccc(S(N)(=O)=O)c4)c3c2)c1")
0
>>> readout_number("Cc1c2ccc(N(C)c3ccnc(Nc4cccc(S(N)(=O)=O)c4)n3)cc2nn1Cc1ccccc1.Cl.Cl")
98.9
>>> readout_number("Cc1nnc(-c2ccc3ncc(-c4ccc(S(C)=O)cc4)n3c2)o1 (stereo not shown)")
0
>>> readout_number("Cc1ccc(NC(=O)c2ccnc(N3CCN(C)CC3)c2)cc1-c1ccc(C(=O)NCC2CC2)cc1")
0
>>> readout_number("Cn1cc(-c2ccc3c(c2)CCN3C(=O)Cc2ccccc2Cl)c2c(N)ncnc21")
98.8
>>> readout_number("NS(=O)(=O)c1cccc(-c2ccc3ncc(N4CCOCC4)nc3c2)c1")
13
>>> readout_number("C[C@@H](Oc1cc(-n2cnc3ccc(NC(=O)NC(C)(C)C)cc32)sc1C(N)=O)c1ccccc1Cl")
46
